# T/C values compiled below
- System: L1210 leukemia ip in BDF1 mice, survival T/C
- METHOD SUMMARY: NCI In Vivo Anticancer Drug Screen. Data for tumor model L1210 Leukemia (intraperitoneal) in B6D2F1 (BDF1) mice
- STATED CONDITIONS: endpoint: mean survival time; dose: 200.0 mg/kg/injection; schedule: Q04DX003 (ip); vehicle: Klucel (hydroxypropylcellulose) (HPC); higher = longer survival
Inconclusive results and toxic doses are left out.

Give a short answer stating reported T/C for CC(C)CCCC(C)CC1CC(C)CCC1O (stereo not drawn) .
94 % of control

* * *

- Tested on: L1210 leukemia ip in BDF1 mice, survival T/C
- METHOD SUMMARY: NCI In Vivo Anticancer Drug Screen. Data for tumor model L1210 Leukemia (intraperitoneal) in B6D2F1 (BDF1) mice
- STATED CONDITIONS: endpoint: mean survival time; dose: 150.0 mg/kg/injection; schedule: Q01DX001 (ip); vehicle: other; higher = longer survival
- Experimental: The antitumor activity of compounds was measured in mice bearing transplantable tumors. Survival or tumor size were measured and the results are expressed as the measurement made in the treated group (T) divided by the measurement made in the vehicle treated control group (C). The tumor model used in this assay is L1210 Leukemia (intraperitoneal) in B6D2F1 (BDF1) mice
Inconclusive results and toxic doses are left out.
Reported T/C by item:

// solved cases for T/C follow
{"COMPOUND": "CN1CC2C3C=CC(C3)C2C1 (stereo unspecified)", "T/C": "88 % of control"}
{"COMPOUND": "CCCCN(C)/N=N/c1nc[nH]c1C#N", "T/C": "102 % of control"}
{"COMPOUND": "CC(=O)Oc1ccc(N(CCCl)CCCl)cc1OC(C)=O", "T/C": "98 % of control"}

Assign T/C to the following record: O=C1C(=O)c2ccccc2C(O)=C1C(C1=C(O)c2ccccc2C(=O)C1=O)c1ccc(Cl)cc1Cl
91 % of control

Give the reported value of T/C for this record: Clc1ccc2c(NCCN3CCCCCC3)nc(C(Cl)(Cl)Cl)nc2c1
97 % of control

Give the measured T/C for CCCCCNC(=S)Nc1ccccc1
112 % of control
